# assay_notes: P. aeruginosa biofilm formation inhibitors, primary screen, PAO1 strain, BacTiter-Glo luminescence, LB-PBS (AID 1144)
# conditions_used: 12 h, higher = more signal
Classification field: enter YES for z-score values not below -0.5, NO for values below it.

INSERT INTO assay_data (compound, class_name) VALUES
  ('CC(C)C[C@H]1NC(=O)CNC(=O)[C@@]23C(=O)N[C@@H](Cc4ccccc4)C2[C@H](C)[C@@]2(C)O[C@H]2C3/C=C/C/C=C\CNC1=O (some centres undefined)', 'YES');

Below: the item to evaluate.
Hi, just wondering whether COc1ccc(C(O)C2C=CC3C(=O)N(c4ccccc4)C(=O)C3N2Nc2ccccc2F)c2ccccc12 (centres undefined) shows z-score of -0.5 or higher.
NO
